target: IKKα (Homo sapiens); construct: purchased Millipore, Dundee, UK; assay: DELFIA kinase assay, IKKα; format: biochemical; conditions: SAR discussion
Sequence (O15111 whole entry): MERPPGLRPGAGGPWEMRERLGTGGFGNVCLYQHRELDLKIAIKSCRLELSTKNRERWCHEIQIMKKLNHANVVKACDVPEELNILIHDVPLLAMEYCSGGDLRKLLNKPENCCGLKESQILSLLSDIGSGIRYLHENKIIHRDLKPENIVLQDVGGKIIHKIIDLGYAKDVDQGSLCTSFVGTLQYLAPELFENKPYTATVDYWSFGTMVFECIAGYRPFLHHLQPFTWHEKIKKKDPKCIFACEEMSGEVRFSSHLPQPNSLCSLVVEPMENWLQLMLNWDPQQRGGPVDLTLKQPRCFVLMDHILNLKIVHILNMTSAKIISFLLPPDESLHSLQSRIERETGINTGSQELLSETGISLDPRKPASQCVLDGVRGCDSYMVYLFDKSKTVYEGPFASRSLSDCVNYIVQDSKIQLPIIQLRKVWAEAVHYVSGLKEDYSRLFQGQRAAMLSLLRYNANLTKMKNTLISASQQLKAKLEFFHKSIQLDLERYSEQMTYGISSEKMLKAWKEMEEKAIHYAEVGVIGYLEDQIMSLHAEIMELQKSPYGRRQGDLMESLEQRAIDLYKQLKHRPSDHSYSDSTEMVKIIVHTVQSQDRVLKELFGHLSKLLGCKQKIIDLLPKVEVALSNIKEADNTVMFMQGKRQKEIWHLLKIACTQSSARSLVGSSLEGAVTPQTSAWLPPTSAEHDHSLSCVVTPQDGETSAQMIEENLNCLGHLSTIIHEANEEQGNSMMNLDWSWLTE
observable: IKKα inhibitory activity

Answered cases to consult:
| substanceSmiles | reported |
| --- | --- |
| N#Cc1c[nH]c2nc(N)nc(N3CC[C@@H](O)C3)c12 | inactive |
| N#Cc1c[nH]c2nc(N)nc(N3CCC(S(N)(=O)=O)CC3)c12 | active |
| Nc1nc(Cl)c2cc[nH]c2n1 | inactive |
| N#Cc1c[nH]c2nc(N)nc(N3CCCCC3)c12 | active |
| N#Cc1c[nH]c2nc(N)nc(-c3cccc(C(N)=O)c3)c12 | inactive |

Incoming: Return reported IKKα inhibitory activity; argument: N#Cc1c[nH]c2nc(N)nc(N(CCO)C3CCCCC3)c12
Outgoing: inactive

====

target: IKKβ (Homo sapiens); construct: purchased Millipore, Dundee, UK; assay: DELFIA kinase assay, IKKβ; type: biochemical; conditions: supplementary CSV; read-out: IKKbeta Ki (?M)
Sequence (O14920 whole entry): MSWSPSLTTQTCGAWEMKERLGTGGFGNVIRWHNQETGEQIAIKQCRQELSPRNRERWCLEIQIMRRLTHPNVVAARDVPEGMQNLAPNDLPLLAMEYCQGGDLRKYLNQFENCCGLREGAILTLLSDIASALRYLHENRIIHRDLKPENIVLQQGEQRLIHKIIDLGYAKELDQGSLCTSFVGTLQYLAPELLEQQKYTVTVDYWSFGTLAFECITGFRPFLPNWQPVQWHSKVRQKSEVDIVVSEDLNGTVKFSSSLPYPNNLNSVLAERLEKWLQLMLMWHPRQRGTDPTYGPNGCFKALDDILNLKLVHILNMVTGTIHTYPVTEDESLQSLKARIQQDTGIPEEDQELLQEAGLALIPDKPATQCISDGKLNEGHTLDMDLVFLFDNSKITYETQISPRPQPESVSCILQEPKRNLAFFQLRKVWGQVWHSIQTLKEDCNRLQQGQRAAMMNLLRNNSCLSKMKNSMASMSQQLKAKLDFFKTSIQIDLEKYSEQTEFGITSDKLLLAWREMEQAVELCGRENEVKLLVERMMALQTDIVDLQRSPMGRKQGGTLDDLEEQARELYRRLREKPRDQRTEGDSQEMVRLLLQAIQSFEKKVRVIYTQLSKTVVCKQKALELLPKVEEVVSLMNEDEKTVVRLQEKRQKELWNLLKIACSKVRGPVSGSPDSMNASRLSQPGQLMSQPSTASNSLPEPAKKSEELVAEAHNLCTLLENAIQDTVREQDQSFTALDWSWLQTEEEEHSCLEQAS
observable: Ki (µM)
Output spec: scalar in µM, unitless text.

Incoming: Return reported Ki; argument: N#Cc1c[nH]c2nc(N)nc(NCc3ccccc3)c12 [Compound 14]
Outgoing: 19

====

tested on: IKKα-driven p100 phosphorylation in U2OS cells; test: FCS-stimulated p100 phosphorylation (Ser866/870) in U2OS cells, Western blot; type: cell-based, human; conditions: Homo sapiens, U2OS, 1 h pretreatment, FCS (10%) for 4 h, blots quantified, read-out: IC50 for inhibition of p100 phosphorylation
observable: pIC50
As a rule, pIC50 stands for the negative log10 of the concentration, concentration in M.

Incoming: Return reported pIC50; argument: N#Cc1c[nH]c2nc(N)nc(-c3ccc(CO)cc3)c12 [Compound 47]
Outgoing: 4.86

Incoming: Return reported pIC50; argument: N#Cc1c[nH]c2nc(N)nc(-c3ccc(S(N)(=O)=O)cc3)c12 [Compound 48]
Outgoing: 5.06

Reference source: paper PMC5578373
